test-protocol: Dielectric constant (Agilent 85070 Dielectric Probe; ASTM D150-11)
Type: physicochemical
condition: Table E1; ambient pressure, room temperature (approximately 23° C.)
# key: entry, value: Calculated Dk at 20 GHz
// return just the number, without any unit appended

compound: F/C=C\C(C(F)(F)F)(C(F)(F)F)C(F)(F)F [cis-tBuFO]
observed-property: Calculated Dk at 20 GHz
observed-value: 6.51

compound: F/C=C\C(F)(C(F)(F)F)C(F)(F)C(F)(F)F (stereo not drawn) [cis-secBuFO]
observed-property: Calculated Dk at 20 GHz
observed-value: 6.48

compound: F/C=C/C(F)(C(F)(F)F)C(F)(F)C(F)(F)F (stereo not drawn) [trans-secBuFO]
observed-property: Calculated Dk at 20 GHz
observed-value: 2.11

Entry F/C=C/C(C(F)(F)F)(C(F)(F)F)C(F)(F)F [trans-tBuFO] has what Calculated Dk at 20 GHz?
2.15

###

Format: physicochemical
observed-property: Boiling point (°C)
State the answer as a number, implicitly in °C.

compound: F/C=C\C(F)(C(F)(F)F)C(F)(F)C(F)(F)F (stereo not drawn) [cis-secBuFO]
observed-property: Boiling point
observed-value: 79.27

compound: F/C=C\C(C(F)(F)F)(C(F)(F)F)C(F)(F)F [cis-tBuFO]
observed-property: Boiling point
observed-value: 76.19

Let us move to another entry and its Boiling point.
Quick one: Boiling point of F/C=C/C(C(F)(F)F)(C(F)(F)F)C(F)(F)F [trans-tBuFO] ?
57.9

###

Type: physicochemical
condition: Table E1
Known BP of a selection of compounds
Field format: number, assumed °C, no unit text.

The cases that follow already have their BP on record.
compound: F/C=C\C(F)(C(F)(F)F)C(F)(F)C(F)(F)F (stereo not drawn) [cis-secBuFO]
observed-value: 79.27

compound: F/C=C/C(C(F)(F)F)(C(F)(F)F)C(F)(F)F [trans-tBuFO]
observed-value: 57.9

Let us move to another entry and its BP.
Any idea what BP was measured for F/C=C\C(C(F)(F)F)(C(F)(F)F)C(F)(F)F [cis-tBuFO] ?
76.19

###

test-protocol: Dielectric constant (Agilent 85070 Dielectric Probe; ASTM D150-11)
Assay type: physicochemical
condition: 20 GHz; Table 3; values understood as 'about'
Overview of reported Dielectric Constant (20 GHz) across a group of molecules:
Give the figure only, with no unit attached.

These recorded examples may help you get a feel for the data.
molecule: F/C=C/C(F)(C(F)(F)F)C(F)(F)C(F)(F)F (stereo not drawn) [trans-secBuFO]
Dielectric Constant (20 GHz): 2.11
--
molecule: F/C=C\C(C(F)(F)F)(C(F)(F)F)C(F)(F)F [cis-tBuFO]
Dielectric Constant (20 GHz): 6.51
--
molecule: F/C=C\C(F)(C(F)(F)F)C(F)(F)C(F)(F)F (stereo not drawn) [cis-secBuFO]
Dielectric Constant (20 GHz): 6.48

State the recorded Dielectric Constant (20 GHz) for this entry: F/C=C/C(C(F)(F)F)(C(F)(F)F)C(F)(F)F [trans-tBuFO]
2.15
